Origin of measurements: PubChem BioAssay (NCI)

- METHOD DESCRIPTION: NCI Yeast Anticancer Drug Screen. Data for the mlh1 strain (AID 171);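 further: 0% = growth of vehicle-treated control cultures of the same strain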
- CONDITION LABEL: S. cerevisiae mlh1 strain growth inhibition; at 1.2 µM; hits give high values
- Description: Growth inhibition of yeast strains with defined genetic alterations is measured as a screen for potential anti-cancer activity. Selected strains with alterations in DNA damage repair or cell cycle control were exposed to compounds and growth inhibition was measured relative to vehicle treated controls. The strain used in this assay is mlh1
About 79,000 compounds went through this panel and 15% of them were active in at least one assay; those are over-represented in the sample as a whole.
ASSAY METRIC: growth inhibition (%)
The reply should be a number in %, with the unit left off.

COMPOUND	ASSAY METRIC	UNITS OF MEASURE	EXPERIMENTAL RESULT
NCCNCCNc1ccc(NCCNCCN)c2c1C(=O)c1c(O)ccc(O)c1C2=O	growth inhibition	%	0
O=[N+]([O-])c1cc(F)c(F)cc1Sc1cc(F)c(F)cc1[N+](=O)[O-]	growth inhibition	%	0
Cc1cc(S(=O)(=O)Nc2nnc3cnc4ccccc4n23)c(S)cc1Cl	growth inhibition	%	-3
CN(C)Cc1cc(N=Nc2ccc(Cl)cc2)ccc1OC(=O)c1ccccc1	growth inhibition	%	2
CCCCc1nnc(NS(=O)(=O)c2ccc(C)cc2)s1	growth inhibition	%	-32
CCOC1Oc2ccccc2-c2nc(N)ncc21 (configuration not stated)	growth inhibition	%	11
CC[n+]1oc(C(=O)c2ccc(Cl)cc2)c(-c2ccccc2)c1-c1ccccc1.[Cl][Fe]([Cl])([Cl])[Cl]	growth inhibition	%	4
CCc1ccc2c(c1)N(CC(C)CN(C)C)c1ccccc1S2 (configuration not stated)	growth inhibition	%	-2
CCCCCCSc1ncnc2[nH]ncc12	growth inhibition	%	-1
COC(=O)NC1C(C)OC(OC2C/C=C(/C)C3C=CC4C(OC5CC(OC6CC(O)C(OC7CC(O)C(OC)C(C)O7)C(C)O6)C(O)C(C)O5)C(C)CC(C)C4C3(C)/C(O)=C3\C(=O)OC4(CC(C)C(CO)=CC4/C=C\2C)C3=O)CC1(C)[N+](=O)[O-] (configuration not stated)	growth inhibition	%	-4

**Query** Could you tell me which growth inhibition is on file for "CC(C)/C(Cl)=N\OC(=O)Nc1ccc(F)cc1F" ?
**Result** 0

---

Reported values of growth inhibition for individual entries
- METHOD DESCRIPTION: NCI Yeast Anticancer Drug Screen. Data for the rad50 strain (AID 155);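 further: 0% = growth of vehicle-only cultures of the same strain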
- CONDITION LABEL: S. cerevisiae rad50 strain growth inhibition; at 11.0 µM; hits give high values
About 79,000 compounds went through this panel and 15% of them were active in at least one assay; those are over-represented in the sample as a whole.
Report the figure in % without appending any unit label.

COMPOUND	UNITS OF MEASURE	growth inhibition
COc1cc(/C=C2\NC(=O)N(/C=C3\C(=O)Oc4ccccc4C3=O)C2=O)ccc1O	%	-9
O=C1c2ccccc2C(=O)c2cc(CCl)ccc21	%	12
CCOC(=O)c1[nH]n(-c2ccccc2)c(=O)c1C=NC(=S)C(N)=S	%	31
NCCNCCNc1ccc(NCCNCCN)c2c1C(=O)c1c(O)ccc(O)c1C2=O	%	82
CN(C)CCCCN1c2ccccc2Sc2ccc(N=[N+]=[N-])cc21	%	15
Cn1c(-c2ccc(/C=N\N3CCN(/N=C/c4ccc(-c5c[n+]6ccccc6n5C)cc4)CC3)cc2)c[n+]2ccccc12	%	-4

Consider now this further compound.
**Query** May I ask what growth inhibition has been recorded for COc1ccc(C(NCCNC(c2ccc(OC)c(OC)c2)c2cc3c(cc2O)OCO3)c2cc3c(cc2O)OCO3)cc1OC (stereo not given) ?
**Result** 19
